target: Aminopeptidase N (Sus scrofa) (UniProt P15145); assay: Inhibition of porcine kidney microsomal LAP using l-leucine-7-amido-4-methylcoumarin as substrate incubated for 10 hrs measured every 6 mins by fluorescence assay
Sequence (P15145 whole entry, looked up): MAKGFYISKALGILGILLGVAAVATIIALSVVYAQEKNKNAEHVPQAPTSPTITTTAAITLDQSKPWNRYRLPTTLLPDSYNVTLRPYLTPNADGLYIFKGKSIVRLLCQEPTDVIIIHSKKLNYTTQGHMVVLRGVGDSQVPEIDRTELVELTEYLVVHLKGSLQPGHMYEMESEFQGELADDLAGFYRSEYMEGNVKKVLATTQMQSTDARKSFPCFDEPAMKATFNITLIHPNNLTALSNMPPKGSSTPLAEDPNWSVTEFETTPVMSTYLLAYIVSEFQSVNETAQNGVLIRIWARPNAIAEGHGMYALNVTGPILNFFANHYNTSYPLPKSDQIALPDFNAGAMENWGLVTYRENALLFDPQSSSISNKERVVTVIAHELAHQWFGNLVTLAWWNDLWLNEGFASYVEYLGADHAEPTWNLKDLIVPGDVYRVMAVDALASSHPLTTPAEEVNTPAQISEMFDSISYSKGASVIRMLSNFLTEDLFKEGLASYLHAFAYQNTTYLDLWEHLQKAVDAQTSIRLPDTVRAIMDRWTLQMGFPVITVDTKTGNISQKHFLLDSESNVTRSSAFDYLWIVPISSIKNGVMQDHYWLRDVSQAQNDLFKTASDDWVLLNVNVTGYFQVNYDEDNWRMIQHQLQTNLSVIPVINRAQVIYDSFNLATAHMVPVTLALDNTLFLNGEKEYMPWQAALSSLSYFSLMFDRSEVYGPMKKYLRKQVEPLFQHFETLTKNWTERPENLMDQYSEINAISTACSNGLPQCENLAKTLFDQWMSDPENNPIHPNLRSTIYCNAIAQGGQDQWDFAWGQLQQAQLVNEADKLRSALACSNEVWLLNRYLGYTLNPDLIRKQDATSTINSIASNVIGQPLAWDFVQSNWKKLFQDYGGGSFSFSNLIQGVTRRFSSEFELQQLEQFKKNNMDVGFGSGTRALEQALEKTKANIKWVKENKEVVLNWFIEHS
measurement.type: IC50 (µM)
Numeric only. Scale: µM

Entry CCOC(=O)C1(C(=O)OCC)Cc2cc(OCc3ccccc3)cc(OCc3ccccc3)c2C=N1 ; IC50 = 33.6

---

biological target: Aminopeptidase N (Sus scrofa); assay: Inhibition of porcine kidney microsomal LAP using l-leucine-7-amido-4-methylcoumarin as substrate incubated for 60 mins measured every 3 mins by fluorescence assay
measurement.type: IC50
Could you kindly put the unit after your number?

Entry O=C(O)C1Cc2cc(O)cc(O)c2C=N1 (stereo unspecified) ; IC50 = 379 µM

Entry O=C(O)C1Cc2cc(O)c(O)c(I)c2C=N1 (stereo unspecified) ; IC50 = 63.6 µM

Entry CCOC(=O)C1(C(=O)OCC)Cc2cc(OCc3ccccc3)cc(OCc3ccccc3)c2C=N1 ; IC50 = 16.5 µM

Entry COc1cc2c(cc1OC)CCC(C(=O)OCc1ccccc1)(C(=O)OCc1ccccc1)N=C2 ; IC50 = 1050 µM

Entry O=C(O)C1Cc2cc(O)c(O)c(Br)c2C=N1 (stereo unspecified) ; IC50 = 68.3 µM

Entry O=C(O)C1CCc2cc(O)c(O)cc2C=N1 (stereo unspecified) ; IC50 = 163 µM

Entry O=C(O)C1Cc2cc(O)c(O)c(O)c2C=N1 (stereo unspecified) ; IC50 = 781 µM

Entry O=C(O)C1Cc2c(O)c(O)cc(Br)c2C=N1 (stereo unspecified) ; IC50 = 409 µM

Entry O=C(O)C1Cc2cc(O)c(Br)c(O)c2C=N1 (stereo unspecified) ; IC50 = 76.8 µM

Entry O=C(O)C1Cc2cc(O)c(O)cc2C=N1 (stereo unspecified) ; IC50 = 111 µM

Entry O=C(O)C1Cc2cc(O)c(I)cc2C=N1 (stereo unspecified) ; IC50 = 69.3 µM
